meta.source: patent US20080166364A1

Biological target: T1, human angiopoietin-2 protein (human, UniProt O15123 19-496)
T1 construct: bought; also called Ang-2; Ang2
T1 sequence (looked up): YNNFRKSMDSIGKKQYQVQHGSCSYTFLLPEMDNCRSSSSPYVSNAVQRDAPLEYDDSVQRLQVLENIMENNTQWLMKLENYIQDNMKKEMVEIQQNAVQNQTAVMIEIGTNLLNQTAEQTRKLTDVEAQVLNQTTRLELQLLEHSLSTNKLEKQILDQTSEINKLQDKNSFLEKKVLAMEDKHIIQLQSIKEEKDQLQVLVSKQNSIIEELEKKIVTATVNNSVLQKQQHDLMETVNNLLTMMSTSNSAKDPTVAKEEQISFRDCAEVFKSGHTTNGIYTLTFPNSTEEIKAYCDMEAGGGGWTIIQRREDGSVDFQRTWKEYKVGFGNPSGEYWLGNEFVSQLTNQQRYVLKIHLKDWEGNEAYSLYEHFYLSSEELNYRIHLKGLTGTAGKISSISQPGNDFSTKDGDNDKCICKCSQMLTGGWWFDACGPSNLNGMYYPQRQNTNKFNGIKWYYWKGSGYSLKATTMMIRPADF
Assay: competitive ELISA, coated Ang-2, 0.25 nM hTie-2-Fc; T form
Non-standard residues stand in square brackets, D forms with d. No end group written: not given here. Phe(4-NO2) = N[C@@H](Cc1ccc([N+](=O)[O-])cc1)C(=O)O; Hyp = O=C(O)[C@@H]1C[C@@H](O)CN1; 0P linker = not defined here; ThA = thiazolylalanine

binder | IC50 (nM)
QK(Ac)YQ[Hyp]LDE[ThA]DK(0P linker)TL[Phe(4-NO2)]DQFMLQQG (not fully specified (N-terminus, C-terminus); printed as Q(AcK)Y Q(HP)L DE(ThA) DK(0P)T L(NO2F)D QFM LQQ G; reading uncertain) [Compound 45 (T): targeting peptide plus 0P linker] | 24.7
QXYQPLDEIDXTLYDQFMLQQG (not fully specified; N-term acyl cap; C-term NH2 cap; AcK at 2; 0P linker on K11) [Compound 37 (T): targeting peptide plus 0P linker] | 1270
